target: SpLsb4
protocol: SPOT peptide array binding signal intensity (averaged, normalized) (arbitrary units (background-subtracted, floor 0; scale differs between SH3 domains)); higher = stronger binding of the SH3 domain to the peptide
# if value of SPOT peptide array binding signal intensity reaches 900, tag Criterion met; if it stays below, tag Criterion not met

These recorded examples may help you get a feel for the data.
- binder: "IFLRISINFPLNYPN"
  discrete label: "Criterion not met"
- binder: "KWVRRPKLMTPLTFS"
  discrete label: "Criterion not met"
- binder: "ISPPASPPPEFDFSK"
  discrete label: "Criterion not met"
- binder: "FYHRPAPKPPVTKKV"
  discrete label: "Criterion not met"
- binder: "RRASLFPRDPKRLRP"
  discrete label: "Criterion not met"

Does SPOT peptide array binding signal intensity meet or surpass 900 for QGYPRQPQRPQRYHP ?
Criterion met

Quick check: does PELAPKREAPKPPAN have SPOT peptide array binding signal intensity greater than or equal to 900?
Criterion not met

Could you please find out whether SSAAPPPPPRRATPE has SPOT peptide array binding signal intensity that meets 900 or exceeds it?
Criterion met

Please check the record RRGPAPPPPPRASRP and state if its SPOT peptide array binding signal intensity is at or above 900.
Criterion met

Item QPWTDQFEKLEKEVS with SPOT peptide array binding signal intensity of 900 or above?
Criterion not met

Record RTIRKLPLMSLSEYF ; criterion: SPOT peptide array binding signal intensity no lower than 900. Met?
Criterion not met

Check this binder for SPOT peptide array binding signal intensity at or above 900: LPMNIQPDLPPRKIM
Criterion met

Has SLSRRRFSLPSMPNV a recorded SPOT peptide array binding signal intensity greater than or equal to 900?
Criterion not met
